Known TGI of a selection of compounds
# System: PANC1
# run description: SRB colorimetric cell growth inhibition assay, PANC1
# recorded conditions: PANC1 cells; total growth inhibition; SRB, 48 hours exposure
Starred links: 1 amine or outer side, 2 acyl side, 3 side chain; linkers in the order of their positions; H or OH if unused. Positions of bridges follow the written chain, without caps; N, C: chain ends. Non-standard residues stand in square brackets, D forms with d. Residues, ends and D or L forms follow the SMILES beside them. Hexanoyl(3S-OH,4R-NH2,5-Me) = CC(C)[C@@H](N[*:1])[C@@H](O)CC(=O)[*:2]; NMe2Nal = CN[C@@H](Cc1ccc2ccccc2c1)C(=O)O; NMeY = CN[C@@H](Cc1ccc(O)cc1)C(=O)O; NMeF = CN[C@@H](Cc1ccccc1)C(=O)O; dNMeL = CN[C@H](CC(C)C)C(=O)O; Hiv = CC(C)[C@H](O)C(=O)O; Lac = C[C@H](O)C(=O)O
recorded metric: TGI (Molar)

compound	recorded metric	reported result
COc1ccc(C[C@H]2C(=O)O[C@H](C)[C@H](NC(=O)[C@@H](CC(C)C)N(C)C(=O)[C@@H]3CCCN3C(=O)[C@H](C)O)C(=O)N[C@H](C(C)C)[C@@H](O)CC(=O)O[C@@H](C(C)C)C(=O)N[C@@H](CC(C)C)C(=O)N3CCC[C@H]3C(=O)N2C)cc1 [tamandarin B, Tamandarin B, reference compound] (H-[Lac]P[dNMeL]T[Hexanoyl(3S-OH,4R-NH2,5-Me)][Hiv]LP[NMeY](Me); ester 4-C)	TGI	5.69E−08
COc1ccc(C[C@H]2C(=O)O[C@H](C)[C@H](NC(=O)[C@@H](CC(C)C)N(C)C(=O)[C@@H]3CCCN3C(=O)[C@H](C)O)C(=O)N[C@H](C(C)C)[C@@H](O)CC(=O)O[C@@H](C(C)C)C(=O)N[C@@H](CC(C)C)C(=O)N[C@@H](C)C(=O)N2C)cc1 [Compound 75, [N-Ala^4]-Tamandarin B] (H-[Lac]P[dNMeL]T[Hexanoyl(3S-OH,4R-NH2,5-Me)][Hiv]LA[NMeY](Me); ester 4-C)	TGI	9.84E−06
CC(C)C[C@@H]1NC(=O)[C@H](C(C)C)OC(=O)C[C@H](O)[C@@H](C(C)C)NC(=O)[C@@H](NC(=O)[C@@H](CC(C)C)N(C)C(=O)[C@@H]2CCCN2C(=O)[C@H](C)O)[C@@H](C)OC(=O)[C@H](Cc2ccc3ccccc3c2)N(C)C(=O)[C@@H]2CCCN2C1=O [Compound 93, [2-Naphthylala^5]-Tamandarin B] (H-[Lac]P[dNMeL]T[Hexanoyl(3S-OH,4R-NH2,5-Me)][Hiv]LP[NMe2Nal]; ester 4-C)	TGI	9.00E−08
CC(C)C[C@@H]1NC(=O)[C@H](C(C)C)OC(=O)C[C@H](O)[C@@H](C(C)C)NC(=O)[C@@H](NC(=O)[C@@H](CC(C)C)N(C)C(=O)[C@@H]2CCCN2C(=O)[C@H](C)O)[C@@H](C)OC(=O)[C@H](Cc2ccccc2)N(C)C(=O)[C@@H]2CCCN2C1=O [Phe^5 tamandarin B, [N-MePhe^5]-Tamandarin B] (H-[Lac]P[dNMeL]T[Hexanoyl(3S-OH,4R-NH2,5-Me)][Hiv]LP[NMeF]; ester 4-C)	TGI	3.28E−08
